System: FoxP3+/CD4+ T-cells in splenocytes from naïve C57BL/6 mice
protocol-description: In vitro dose-response, percent FoxP3+/CD4+ T-cells in murine splenocytes
Assay type: cell-based
experimental-parameters: Mus musculus, T-cell; percent FoxP3+/CD4+ T-cells, 72 hours, 4-parameter log-logistic model fit
Listed here are compounds together with their documented EC50.
measurement-name: EC50 (nM)

N[C@@H](CNC(=O)Cc1ccc(OC(c2ccccc2)c2ccccc2)cc1)C(=O)O	3.76
N[C@@H](CNC(=O)Cc1ccc(OCc2cccc3ccccc23)cc1)C(=O)O	0.00602
N[C@@H](CNC(=O)Cc1ccc(OCc2ccccc2)cc1)C(=O)O	2.06
CCCCCC(=O)O[C@@H](COC(C)=O)CO[PH](=O)OC[C@H](N)C(=O)O (stereo partly shown) [PS, phosphatidylserine, reference compound]	0.133
